test-system: ACVR1C-ECD
assay-remarks: MST binding of ACVR1C-ECD-Fc to GREM1-His or ACTIVIN B-His
Parameters: species or system human
conditions: Monolith NT.115, ACVR1C-ECD-Fc 0–27.5 µM vs 50 nM red-fluorescently labeled His-protein, PBS pH 7.4, premium capillaries, n = 3 independent experiments, mean ± s.e.m.
quantity-kind: Kd (µM)
Note: unit µM is implicit; provide only the numeric part.

I'd like to know its Kd. The substance in question is ACTIVIN B: a known ligand of ACVR1C; ACTIVIN B-His protein (SinoBiological, 10814-H08H) 0.854

Values from paper PMC13371181
